Reference source: patent US9586900B2

Target: human melanin concentrating hormone receptor (MCHR1) (Homo sapiens (Human), UniProt Q99705, A5T/E4Q)
Sequence (Q99705 whole entry E4Q/A5T): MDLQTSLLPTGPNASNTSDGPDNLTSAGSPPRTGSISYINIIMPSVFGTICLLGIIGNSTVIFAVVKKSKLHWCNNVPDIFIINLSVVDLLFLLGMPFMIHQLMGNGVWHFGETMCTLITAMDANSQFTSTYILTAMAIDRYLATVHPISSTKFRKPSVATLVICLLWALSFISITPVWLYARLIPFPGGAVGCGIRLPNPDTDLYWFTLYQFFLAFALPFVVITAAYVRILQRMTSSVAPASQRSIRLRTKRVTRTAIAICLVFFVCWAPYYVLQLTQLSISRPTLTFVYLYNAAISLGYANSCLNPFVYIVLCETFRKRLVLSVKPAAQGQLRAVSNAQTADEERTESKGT
Assay: Radioligand binding assay for assessment of MCHR1 activity
Conditions: Table C; membranes of HEK-293 cells expressing mutated (E4Q, A5T) hMCHR1; competition with [Phe13,[125I]Tyr19]-MCH
pKi: −log10 of the molar value.
Class TRUE: pKi at least 7. Class FALSE: pKi below 7.

1. Cc1cc(N2CCC(Oc3ccc(-c4ccccc4F)cc3)C2=O)ccc1OCCS(C)(=O)=O (stereo not drawn) = TRUE
2. Cc1cc(N2CC[C@H](Oc3ccc(-c4ccccc4)cc3)C2=O)ccc1OCCS(C)(=O)=O = FALSE
3. Cc1cc(N2CCC(Oc3ccc(C4CC4)cc3)C2=O)ccc1OCCS(C)(=O)=O (stereo not drawn) = TRUE
4. Cc1cc(N2CC[C@@H](Oc3ccc(-c4ccccc4)cc3)C2=O)ccc1OCCS(C)(=O)=O = TRUE
5. Cc1cc(N2CCC(Oc3ccc(-c4ccncc4)cc3)C2=O)ccc1OCCS(C)(=O)=O (stereo not drawn) = TRUE

---

Molecular target: human melanin concentrating hormone receptor (MCHR1) (Homo sapiens (Human), UniProt Q99705, A5T/E4Q)
Experiment: Radioligand binding assay for assessment of MCHR1 activity
Settings: Table D; membranes of HEK-293 cells expressing mutated (E4Q, A5T) hMCHR1; competition with [Phe13,[125I]Tyr19]-MCH
Recorded metric: Ki (nM)

1) COc1cc(N2CC=C(Oc3ccc(C4CC4)cc3)C2=O)ccc1O = 10
2) COc1cc(N2CC=C(Oc3ccc(C4CC4)cc3)C2=O)ccc1OCC(C)(C)O = 3

---

Target: human melanin concentrating hormone receptor (MCHR1) (Homo sapiens (Human), UniProt Q99705, A5T/E4Q)
Test: Radioligand binding assay for assessment of MCHR1 activity
Settings: Table A; membranes of HEK-293 cells expressing mutated (E4Q, A5T) hMCHR1; competition with [Phe13,[125I]Tyr19]-MCH
Ki values by entry
Recorded metric: Ki (µM)

1) COc1cc(N2CC[C@@H](Oc3ccc(C(F)(F)F)cc3)C2=O)ccc1OCC(C)(C)O = 0.023
2) COc1cc(N2CC[C@H](Oc3ccc(C(F)(F)F)cc3)C2=O)ccc1OCC(C)(C)O = 6
